test system: HS 578T breast; experiment: NCI tumour cell line growth inhibition, 48 h
Listed compounds paired with reported TGI
Measured Property: TGI (µM)

[[record]]
compound = "O=C(O)CNC(=O)CO/N=C1/C(c2c(O)[nH]c3ccccc23)=Nc2ccccc21"
measurement_unit = "µM"
qual = ">"
recorded_measurement = 100

[[record]]
compound = "CN(C)c1ccc(N2Cc3ccccc3OC3=C2C(=O)c2c(O)ccc(O)c2C3=O)cn1"
measurement_unit = "µM"
qual = "="
recorded_measurement = 26.1

[[record]]
compound = "Cn1c2ccccc2c(=S)c2ccccc21"
measurement_unit = "µM"
qual = ">"
recorded_measurement = 100

[[record]]
compound = "COC(=O)[C@@H]1CN(C(=O)c2ccccc2)C(=O)N1"
measurement_unit = "µM"
qual = ">"
recorded_measurement = 100

[[record]]
compound = "CC(=N/NC(=S)N1CCCCC1)/C(=N\\NC(=S)N1CCCCC1)c1ccccc1"
measurement_unit = "µM"
qual = "="
recorded_measurement = 4.82

[[record]]
compound = "CCc1n[nH]c(=S)n1/N=C\\c1ccc(-c2ccccc2Cl)o1"
measurement_unit = "µM"
qual = ">"
recorded_measurement = 100

[[record]]
compound = "COc1cc(C2c3cc4c(cc3OC(NC3CCCCC3)C2C)OCO4)cc(OC)c1OC (stereo unspecified)"
measurement_unit = "µM"
qual = "="
recorded_measurement = 58.3

[[record]]
compound = "COCc1nc2c(OC)cc(-c3nc4nc(N5CCN(C)CC5)ccc4[nH]3)c(OC)c2[nH]1"
measurement_unit = "µM"
qual = ">"
recorded_measurement = 100

[[record]]
compound = "COC(=O)Nc1nc2ccc(Oc3ccc(NC(=O)Nc4cccc(C(=O)O)c4)cc3)cc2[nH]1"
measurement_unit = "µM"
qual = "="
recorded_measurement = 24.5

[[record]]
compound = "COc1ccc(N(C)S(=O)(=O)c2ccccc2)cc1"
measurement_unit = "µM"
qual = ">"
recorded_measurement = 100

[[record]]
compound = "COCO[C@@H]1C[C@H]2C(O)Nc3ccccc3C(=O)N2C1 (stereo partly specified)"
measurement_unit = "µM"
qual = ">"
recorded_measurement = 100

[[record]]
compound = "COc1cc2c(cc1OCCCOc1cc(-c3ccc(F)cc3)nc(C)n1)N=C[C@@H]1CCCN1C2=O"
measurement_unit = "µM"
qual = "="
recorded_measurement = 94.3

[[record]]
compound = "COC(=O)/C=C/c1ccc2c(c1)CCC2"
measurement_unit = "µM"
qual = ">"
recorded_measurement = 100

[[record]]
compound = "COc1cc(N(CCC#N)CCC#N)ccc1/C=C1\\SC(=S)NC1=O"
measurement_unit = "µM"
qual = ">"
recorded_measurement = 100

[[record]]
compound = "CC1=CC(=NC(=O)CBr)C=C/C1=N\\S(=O)(=O)c1ccccc1"
measurement_unit = "µM"
qual = "="
recorded_measurement = 35.2

[[record]]
compound = "COc1cc(/C=C2\\C[C@H]3[C@@H]4CC=C5C[C@@H](O)CC[C@]5(C)[C@H]4CC[C@]3(C)[C@H]2O)cc(OC)c1OC"
measurement_unit = "µM"
qual = ">"
recorded_measurement = 100

[[record]]
compound = "C=C1C(=O)O[C@@H]2[C@H]1C[C@@H](O)[C@H](C)[C@@](O)(C(=O)/C=C/C)[C@H]2OC(=O)C(C)CC (stereo partly specified)"
measurement_unit = "µM"
qual = "="
recorded_measurement = 6.34

[[record]]
compound = "COc1c(C)c(C/C=C(\\C)CCCCO[Si](C(C)C)(C(C)C)C(C)C)c(OC)c2ccccc12"
measurement_unit = "µM"
qual = ">"
recorded_measurement = 100

[[record]]
compound = "COc1ccc(N(CC(=O)NCCC[Te]c2ccccc2)C(=O)c2ccccc2)cc1"
measurement_unit = "µM"
qual = "="
recorded_measurement = 8.41

[[record]]
compound = "Cc1nc(Cl)nc(Cl)c1C"
measurement_unit = "µM"
qual = ">"
recorded_measurement = 100

[[record]]
compound = "CC(C)(C)NC(C1=CC(C)(C)c2ccccc2C1=O)c1ccccc1 (stereo unspecified)"
measurement_unit = "µM"
qual = "="
recorded_measurement = 6.08

